Property: viability, T/C; scope: individual compounds
- Tested on: 454973-116-R2-J3-PDC complex spheroid viability;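 also: spheroids exposed to drugs for seven days before measurement; percent viability relative to DMSO vehicle control wells taken as 100%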
- test.description: Anticancer human tumor 454973-116-R2-J3-PDC patient-derived pancreatic carcinoma cell line growth inhibition [POLQ]
- condition.summary: second compound 3.16 µM; first compound 0.0316 µM; stronger effect = lower value

{"columns": ["compound", "viability, T/C, %"],
 "data": [
  ["COc1ccc([C@@H](O)c2cc(-c3ncnc4cc(N5CCOCC5)ccc34)c(F)cc2Cl)nn1 + COC1C(OC(N)=O)C(O)C(Oc2ccc3c(O)c(NC(=O)c4ccc(O)c(CC=C(C)C)c4)c(=O)oc3c2C)OC1(C)C", 112],
  ["O=C(c1cc(Cc2n[nH]c(=O)c3ccccc23)ccc1F)N1CCN(C(=O)C2CC2)CC1 + COC1C(OC(N)=O)C(O)C(Oc2ccc3c(O)c(NC(=O)c4ccc(O)c(CC=C(C)C)c4)c(=O)oc3c2C)OC1(C)C", 115],
  ["Nc1ccn(C2OC(CO)C(O)C2(F)F)c(=O)n1 (stereo not given) + COC1C(OC(N)=O)C(O)C(Oc2ccc3c(O)c(NC(=O)c4ccc(O)c(CC=C(C)C)c4)c(=O)oc3c2C)OC1(C)C", 12.2],
  ["O=C(Nc1ccc(O)c(NS(=O)(=O)c2ccc(F)cc2)c1)c1ccc(-c2ccccc2)cc1 + Cc1cccc(N(C)C(=O)C2C(O)CCN2c2nc(C)cc(C(F)(F)F)c2C#N)c1", 107],
  ["C=CCn1c(=O)c2cnc(Nc3ccc(N4CCN(C)CC4)cc3)nc2n1-c1cccc(C(C)(C)O)n1 + Cc1cccc(N(C)C(=O)C2C(O)CCN2c2nc(C)cc(C(F)(F)F)c2C#N)c1", 99.7],
  ["CC(C)n1c(=O)n(C)c2cnc3cc(F)c(-c4ccc(OCCCN5CCCCC5)nc4)cc3c21 + Cc1cccc(N(C)C(=O)C2C(O)CCN2c2nc(C)cc(C(F)(F)F)c2C#N)c1", 109],
  ["CC1COCCN1c1cc(C2(O)CC3CCC(C2)O3)c2cnn(-c3ccn[nH]3)c2n1 (stereo not given) + Cc1cccc(N(C)C(=O)C2C(O)CCN2c2nc(C)cc(C(F)(F)F)c2C#N)c1", 98.5],
  ["COc1cc(C2c3cc4c(cc3C(OC3OC5COC(C)OC5C(O)C3O)C3COC(=O)C23)OCO4)cc(OC)c1O (stereo not given) + Cc1cccc(N(C)C(=O)C2C(O)CCN2c2nc(C)cc(C(F)(F)F)c2C#N)c1", 106],
  ["CCc1cc2c(N3CCc4c(cc(Cn5ccnc5)cc4-c4cn(C)nc4C(F)(F)F)C3=O)cc(C)nc2c(OC)n1 + Nc1ccc(C#CCN(C(=O)Cc2ncc(C(F)(F)F)cc2C(F)(F)F)c2ccc(F)cc2)nn1", 101],
  ["CCc1c2c(nc3ccc(O)cc13)-c1cc3c(c(=O)n1C2)COC(=O)[C@]3(O)CC + Nc1ccc(C#CCN(C(=O)Cc2ncc(C(F)(F)F)cc2C(F)(F)F)c2ccc(F)cc2)nn1", 7.09],
  ["C#Cc1c(F)ccc2cc(O)cc(-c3ncc4c(N5CC6CCC(C5)N6)nc(OCC56CCCN5CC(F)C6)nc4c3F)c12 (stereo not given) + COC1C(OC(N)=O)C(O)C(Oc2ccc3c(O)c(NC(=O)c4ccc(O)c(CC=C(C)C)c4)c(=O)oc3c2C)OC1(C)C", 69.7],
  ["Cn1ncnc1[C@H]1c2n[nH]c(=O)c3cc(F)cc(c23)N[C@@H]1c1ccc(F)cc1 + Nc1ccc(C#CCN(C(=O)Cc2ncc(C(F)(F)F)cc2C(F)(F)F)c2ccc(F)cc2)nn1", 96.3],
  ["CCc1cc2c(N3CCc4c(cc(Cn5ccnc5)cc4-c4cn(C)nc4C(F)(F)F)C3=O)cc(C)nc2c(OC)n1 + Cc1cccc(N(C)C(=O)C2C(O)CCN2c2nc(C)cc(C(F)(F)F)c2C#N)c1", 104],
  ["C=CCn1c(=O)c2cnc(Nc3ccc(N4CCN(C)CC4)cc3)nc2n1-c1cccc(C(C)(C)O)n1 + COC1C(OC(N)=O)C(O)C(Oc2ccc3c(O)c(NC(=O)c4ccc(O)c(CC=C(C)C)c4)c(=O)oc3c2C)OC1(C)C", 111],
  ["O=c1[nH]cc(F)c(=O)[nH]1 + COC1C(OC(N)=O)C(O)C(Oc2ccc3c(O)c(NC(=O)c4ccc(O)c(CC=C(C)C)c4)c(=O)oc3c2C)OC1(C)C", 112],
  ["Cn1ncnc1[C@H]1c2n[nH]c(=O)c3cc(F)cc(c23)N[C@@H]1c1ccc(F)cc1 + Cc1cccc(N(C)C(=O)C2C(O)CCN2c2nc(C)cc(C(F)(F)F)c2C#N)c1", 97.2],
  ["C=CCn1c(=O)c2cnc(Nc3ccc(N4CCN(C)CC4)cc3)nc2n1-c1cccc(C(C)(C)O)n1 + Nc1ccc(C#CCN(C(=O)Cc2ncc(C(F)(F)F)cc2C(F)(F)F)c2ccc(F)cc2)nn1", 115],
  ["CCc1cc2c(N3CCc4c(cc(Cn5ccnc5)cc4-c4cn(C)nc4C(F)(F)F)C3=O)ccnc2c(OC)n1 + COC1C(OC(N)=O)C(O)C(Oc2ccc3c(O)c(NC(=O)c4ccc(O)c(CC=C(C)C)c4)c(=O)oc3c2C)OC1(C)C", 107],
  ["CNCc1ccc(-c2[nH]c3cc(F)cc4c3c2CCNC4=O)cc1 + Nc1ccc(C#CCN(C(=O)Cc2ncc(C(F)(F)F)cc2C(F)(F)F)c2ccc(F)cc2)nn1", 113],
  ["O=C(c1cc(Cc2n[nH]c(=O)c3ccccc23)ccc1F)N1CCN(C(=O)C2CC2)CC1 + Cc1cccc(N(C)C(=O)C2C(O)CCN2c2nc(C)cc(C(F)(F)F)c2C#N)c1", 108]
]}
